B1: ZNF449 (parent)
chain: HTGERPYECTVCKKRFTRRSHLIG

Variants of: B1
Assay: protein stability index of a GFP-peptide fusion (GPS, HEK-293T) (PSI 1-6); higher = more stable;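 also: lentivirally expressed fusions sorted by FACS into six bins by GFP to DsRed ratio, PSI derived from sequencing read proportions per bin multiplied by bin number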
Conditions: c terminus: a fixed tail appended
Mark yes for reported protein stability index of 2 or greater; mark no for anything smaller.

MUTATION_KEY	LABEL_CLASS
V11I	no
P6Y	yes
C12H	yes

query: I'd appreciate it if you could say whether `C12K` has protein stability index at least equal to 2.
result: yes

query: Quick check: does `V11Y` have protein stability index greater than or equal to 2?
result: yes

query: Could you tell me if the measured protein stability index of `P6F` reaches 2 or more?
result: no

query: Decide: is the reported value of protein stability index for `T10N` equal to or greater than 2?
result: yes

query: Does `T2S` have a reported protein stability index of at least 2?
result: no

query: Does `Y7H` have a reported protein stability index of at least 2?
result: yes

query: Is protein stability index for `R5E` at or above 2?
result: yes

query: Determine whether measured protein stability index meets or exceeds 2 for `C9T`
result: yes
